Molecular target: EGFR (Homo sapiens)
Construct: by immunoblotting in intact A431 cells that overexpress EGFR; endogenous in cells
Sequence (P00533 25-1210): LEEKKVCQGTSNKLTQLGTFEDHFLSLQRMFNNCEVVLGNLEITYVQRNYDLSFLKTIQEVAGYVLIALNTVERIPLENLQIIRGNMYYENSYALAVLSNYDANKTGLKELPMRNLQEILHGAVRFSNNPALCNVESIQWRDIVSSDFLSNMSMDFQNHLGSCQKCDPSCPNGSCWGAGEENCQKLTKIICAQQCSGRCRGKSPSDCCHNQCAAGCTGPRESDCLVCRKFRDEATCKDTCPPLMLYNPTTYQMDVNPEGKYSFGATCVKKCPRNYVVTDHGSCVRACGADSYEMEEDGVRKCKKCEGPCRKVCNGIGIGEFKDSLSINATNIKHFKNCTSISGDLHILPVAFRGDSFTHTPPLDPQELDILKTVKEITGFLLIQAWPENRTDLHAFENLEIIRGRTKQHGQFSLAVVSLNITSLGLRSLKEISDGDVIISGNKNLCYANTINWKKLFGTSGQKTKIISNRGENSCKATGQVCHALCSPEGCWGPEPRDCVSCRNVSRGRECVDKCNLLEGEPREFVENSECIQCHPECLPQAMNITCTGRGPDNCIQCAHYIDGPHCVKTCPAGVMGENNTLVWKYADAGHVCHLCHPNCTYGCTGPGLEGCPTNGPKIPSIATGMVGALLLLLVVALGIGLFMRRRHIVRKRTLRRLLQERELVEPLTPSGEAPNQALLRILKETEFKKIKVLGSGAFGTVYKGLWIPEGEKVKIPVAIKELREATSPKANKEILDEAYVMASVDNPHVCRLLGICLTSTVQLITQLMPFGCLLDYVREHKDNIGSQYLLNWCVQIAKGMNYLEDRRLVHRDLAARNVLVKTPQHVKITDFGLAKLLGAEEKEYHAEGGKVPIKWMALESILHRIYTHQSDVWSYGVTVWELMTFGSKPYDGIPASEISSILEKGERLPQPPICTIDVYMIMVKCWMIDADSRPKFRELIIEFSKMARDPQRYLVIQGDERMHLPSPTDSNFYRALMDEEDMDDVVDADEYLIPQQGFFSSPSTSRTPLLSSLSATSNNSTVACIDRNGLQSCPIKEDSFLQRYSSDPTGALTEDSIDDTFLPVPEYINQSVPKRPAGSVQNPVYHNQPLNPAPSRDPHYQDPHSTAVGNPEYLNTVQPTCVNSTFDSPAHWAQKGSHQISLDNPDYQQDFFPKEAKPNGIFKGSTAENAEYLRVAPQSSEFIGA
Test: Inhibition of EGFR phosphorylation in intact A431 cells (immunoblotting)
Details: 2 h compound then EGF 20 ng/mL 5 min, Western blot
pIC50: −log10 of the molar value.
Test Readout: pIC50

O=C([O-])CN(CCCCCC(=O)Nc1ccc2ncnc(Nc3cccc(Br)c3)c2c1)Cc1ccccn1.[C-]#[O+].[C-]#[O+].[C-]#[O+].[Re+] [Compound 5a, fac-[Re(NNO)(CO)3]]	7.58
O=C([O-])CN(CCCCCC(=O)Nc1ccc2ncnc(Nc3cccc(Br)c3)c2c1)Cc1ccccn1.[99Tc+].[C-]#[O+].[C-]#[O+].[C-]#[O+] [Compound 5b, fac-[^99mTc(NNO)(CO)3]]	7.58
